Measured values drawn from ChEMBL document CHEMBL3433997 for this set.

# Target of assay: Glucose transporter (Leishmania mexicana) (UniProt O61059)
# Experiment: ST_JUDE_LEISH: Cytotoxicity at 2uM final concentration against transgenic Leishmania Mexicana promastigotes LmGT2 that are glucose transport deficient and complemented with the L. Mexicana glucose transporter 2. Activity is measured by DNA content using SYBR green in vitro
# Format: functional
Value kind: inhibition (%)
I only need the number, in %, no unit after it.

Query: Looking for the measured inhibition of O=C(NC1CCC(CN2CCC(c3c[nH]c4ccccc34)CC2)CC1)[C@H]1Cc2ccccc2CN1 (stereo partly specified) , can you help?
Response: 4.44

Query: Looking for the measured inhibition of `COc1cc(C=CC(=O)N2CCC(CN3CCC(c4c[nH]c5ccccc45)CC3)CC2)cc(OC)c1` , can you help?
Response: -2.69

Query: Looking for the measured inhibition of CN1CC(c2ccc(Cl)c(Cl)c2)OC1=N (stereo unspecified) , can you help?
Response: -0.89

Query: Looking for the measured inhibition of `O=C(/C=C/c1ccc(Cl)c(Cl)c1)N1CCC(CN2CCC(c3c[nH]c4cc5c(cc34)OCO5)CC2)CC1` , can you help?
Response: 3.71
